Task for the reader: assign each of the following compounds its reported solubility.
- test: Aqueous solubility of the compound at pH 7.4
- Assay type: physicochemical
- particulars: buffer
// units = µM; emit number, no label

Enquiry: Which value of solubility has been reported for CN1CCN(CC(=O)Nc2ccc(-c3cccc4c(=O)cc(N5CCOCC5)oc34)c3sc4ccccc4c23)CC1 in the records?
Return: 5

Enquiry: Which value of solubility has been reported for CCN1CCN(CC(=O)Nc2ccc(-c3cccc4c(=O)cc(N5CCOCC5)oc34)c3sc4ccccc4c23)CC1 in the records?
Return: 161

Enquiry: Which value of solubility has been reported for O=C(CN1CCN(CCO)CC1)Nc1ccc(-c2cccc3c(=O)cc(N4CCOCC4)oc23)c2sc3ccccc3c12 in the records?
Return: 154

---

Task for the reader: assign each of the following compounds its reported IC50.
- tgt: Phosphatidylinositol 4,5-bisphosphate 3-kinase catalytic subunit gamma isoform (Homo sapiens)
- test: Inhibition of PI-3K gamma (unknown origin)
// units = µM; emit number, no label

Enquiry: Which value of IC50 has been reported for CCN1CCN(CC(=O)Nc2ccc(-c3cccc4c(=O)cc(N5CCOCC5)oc34)c3sc4ccccc4c23)CC1 in the records?
Return: 0.59

Enquiry: Which value of IC50 has been reported for O=c1cc(N2CCOCC2)oc2c(-c3cccc4c3sc3ccccc34)cccc12 in the records?
Return: 0.22

---

Task for the reader: assign each of the following molecules its reported pIC50.
- tgt: DNA-dependent protein kinase catalytic subunit (Homo sapiens, UniProt P78527)
- Sequence (P78527 whole entry): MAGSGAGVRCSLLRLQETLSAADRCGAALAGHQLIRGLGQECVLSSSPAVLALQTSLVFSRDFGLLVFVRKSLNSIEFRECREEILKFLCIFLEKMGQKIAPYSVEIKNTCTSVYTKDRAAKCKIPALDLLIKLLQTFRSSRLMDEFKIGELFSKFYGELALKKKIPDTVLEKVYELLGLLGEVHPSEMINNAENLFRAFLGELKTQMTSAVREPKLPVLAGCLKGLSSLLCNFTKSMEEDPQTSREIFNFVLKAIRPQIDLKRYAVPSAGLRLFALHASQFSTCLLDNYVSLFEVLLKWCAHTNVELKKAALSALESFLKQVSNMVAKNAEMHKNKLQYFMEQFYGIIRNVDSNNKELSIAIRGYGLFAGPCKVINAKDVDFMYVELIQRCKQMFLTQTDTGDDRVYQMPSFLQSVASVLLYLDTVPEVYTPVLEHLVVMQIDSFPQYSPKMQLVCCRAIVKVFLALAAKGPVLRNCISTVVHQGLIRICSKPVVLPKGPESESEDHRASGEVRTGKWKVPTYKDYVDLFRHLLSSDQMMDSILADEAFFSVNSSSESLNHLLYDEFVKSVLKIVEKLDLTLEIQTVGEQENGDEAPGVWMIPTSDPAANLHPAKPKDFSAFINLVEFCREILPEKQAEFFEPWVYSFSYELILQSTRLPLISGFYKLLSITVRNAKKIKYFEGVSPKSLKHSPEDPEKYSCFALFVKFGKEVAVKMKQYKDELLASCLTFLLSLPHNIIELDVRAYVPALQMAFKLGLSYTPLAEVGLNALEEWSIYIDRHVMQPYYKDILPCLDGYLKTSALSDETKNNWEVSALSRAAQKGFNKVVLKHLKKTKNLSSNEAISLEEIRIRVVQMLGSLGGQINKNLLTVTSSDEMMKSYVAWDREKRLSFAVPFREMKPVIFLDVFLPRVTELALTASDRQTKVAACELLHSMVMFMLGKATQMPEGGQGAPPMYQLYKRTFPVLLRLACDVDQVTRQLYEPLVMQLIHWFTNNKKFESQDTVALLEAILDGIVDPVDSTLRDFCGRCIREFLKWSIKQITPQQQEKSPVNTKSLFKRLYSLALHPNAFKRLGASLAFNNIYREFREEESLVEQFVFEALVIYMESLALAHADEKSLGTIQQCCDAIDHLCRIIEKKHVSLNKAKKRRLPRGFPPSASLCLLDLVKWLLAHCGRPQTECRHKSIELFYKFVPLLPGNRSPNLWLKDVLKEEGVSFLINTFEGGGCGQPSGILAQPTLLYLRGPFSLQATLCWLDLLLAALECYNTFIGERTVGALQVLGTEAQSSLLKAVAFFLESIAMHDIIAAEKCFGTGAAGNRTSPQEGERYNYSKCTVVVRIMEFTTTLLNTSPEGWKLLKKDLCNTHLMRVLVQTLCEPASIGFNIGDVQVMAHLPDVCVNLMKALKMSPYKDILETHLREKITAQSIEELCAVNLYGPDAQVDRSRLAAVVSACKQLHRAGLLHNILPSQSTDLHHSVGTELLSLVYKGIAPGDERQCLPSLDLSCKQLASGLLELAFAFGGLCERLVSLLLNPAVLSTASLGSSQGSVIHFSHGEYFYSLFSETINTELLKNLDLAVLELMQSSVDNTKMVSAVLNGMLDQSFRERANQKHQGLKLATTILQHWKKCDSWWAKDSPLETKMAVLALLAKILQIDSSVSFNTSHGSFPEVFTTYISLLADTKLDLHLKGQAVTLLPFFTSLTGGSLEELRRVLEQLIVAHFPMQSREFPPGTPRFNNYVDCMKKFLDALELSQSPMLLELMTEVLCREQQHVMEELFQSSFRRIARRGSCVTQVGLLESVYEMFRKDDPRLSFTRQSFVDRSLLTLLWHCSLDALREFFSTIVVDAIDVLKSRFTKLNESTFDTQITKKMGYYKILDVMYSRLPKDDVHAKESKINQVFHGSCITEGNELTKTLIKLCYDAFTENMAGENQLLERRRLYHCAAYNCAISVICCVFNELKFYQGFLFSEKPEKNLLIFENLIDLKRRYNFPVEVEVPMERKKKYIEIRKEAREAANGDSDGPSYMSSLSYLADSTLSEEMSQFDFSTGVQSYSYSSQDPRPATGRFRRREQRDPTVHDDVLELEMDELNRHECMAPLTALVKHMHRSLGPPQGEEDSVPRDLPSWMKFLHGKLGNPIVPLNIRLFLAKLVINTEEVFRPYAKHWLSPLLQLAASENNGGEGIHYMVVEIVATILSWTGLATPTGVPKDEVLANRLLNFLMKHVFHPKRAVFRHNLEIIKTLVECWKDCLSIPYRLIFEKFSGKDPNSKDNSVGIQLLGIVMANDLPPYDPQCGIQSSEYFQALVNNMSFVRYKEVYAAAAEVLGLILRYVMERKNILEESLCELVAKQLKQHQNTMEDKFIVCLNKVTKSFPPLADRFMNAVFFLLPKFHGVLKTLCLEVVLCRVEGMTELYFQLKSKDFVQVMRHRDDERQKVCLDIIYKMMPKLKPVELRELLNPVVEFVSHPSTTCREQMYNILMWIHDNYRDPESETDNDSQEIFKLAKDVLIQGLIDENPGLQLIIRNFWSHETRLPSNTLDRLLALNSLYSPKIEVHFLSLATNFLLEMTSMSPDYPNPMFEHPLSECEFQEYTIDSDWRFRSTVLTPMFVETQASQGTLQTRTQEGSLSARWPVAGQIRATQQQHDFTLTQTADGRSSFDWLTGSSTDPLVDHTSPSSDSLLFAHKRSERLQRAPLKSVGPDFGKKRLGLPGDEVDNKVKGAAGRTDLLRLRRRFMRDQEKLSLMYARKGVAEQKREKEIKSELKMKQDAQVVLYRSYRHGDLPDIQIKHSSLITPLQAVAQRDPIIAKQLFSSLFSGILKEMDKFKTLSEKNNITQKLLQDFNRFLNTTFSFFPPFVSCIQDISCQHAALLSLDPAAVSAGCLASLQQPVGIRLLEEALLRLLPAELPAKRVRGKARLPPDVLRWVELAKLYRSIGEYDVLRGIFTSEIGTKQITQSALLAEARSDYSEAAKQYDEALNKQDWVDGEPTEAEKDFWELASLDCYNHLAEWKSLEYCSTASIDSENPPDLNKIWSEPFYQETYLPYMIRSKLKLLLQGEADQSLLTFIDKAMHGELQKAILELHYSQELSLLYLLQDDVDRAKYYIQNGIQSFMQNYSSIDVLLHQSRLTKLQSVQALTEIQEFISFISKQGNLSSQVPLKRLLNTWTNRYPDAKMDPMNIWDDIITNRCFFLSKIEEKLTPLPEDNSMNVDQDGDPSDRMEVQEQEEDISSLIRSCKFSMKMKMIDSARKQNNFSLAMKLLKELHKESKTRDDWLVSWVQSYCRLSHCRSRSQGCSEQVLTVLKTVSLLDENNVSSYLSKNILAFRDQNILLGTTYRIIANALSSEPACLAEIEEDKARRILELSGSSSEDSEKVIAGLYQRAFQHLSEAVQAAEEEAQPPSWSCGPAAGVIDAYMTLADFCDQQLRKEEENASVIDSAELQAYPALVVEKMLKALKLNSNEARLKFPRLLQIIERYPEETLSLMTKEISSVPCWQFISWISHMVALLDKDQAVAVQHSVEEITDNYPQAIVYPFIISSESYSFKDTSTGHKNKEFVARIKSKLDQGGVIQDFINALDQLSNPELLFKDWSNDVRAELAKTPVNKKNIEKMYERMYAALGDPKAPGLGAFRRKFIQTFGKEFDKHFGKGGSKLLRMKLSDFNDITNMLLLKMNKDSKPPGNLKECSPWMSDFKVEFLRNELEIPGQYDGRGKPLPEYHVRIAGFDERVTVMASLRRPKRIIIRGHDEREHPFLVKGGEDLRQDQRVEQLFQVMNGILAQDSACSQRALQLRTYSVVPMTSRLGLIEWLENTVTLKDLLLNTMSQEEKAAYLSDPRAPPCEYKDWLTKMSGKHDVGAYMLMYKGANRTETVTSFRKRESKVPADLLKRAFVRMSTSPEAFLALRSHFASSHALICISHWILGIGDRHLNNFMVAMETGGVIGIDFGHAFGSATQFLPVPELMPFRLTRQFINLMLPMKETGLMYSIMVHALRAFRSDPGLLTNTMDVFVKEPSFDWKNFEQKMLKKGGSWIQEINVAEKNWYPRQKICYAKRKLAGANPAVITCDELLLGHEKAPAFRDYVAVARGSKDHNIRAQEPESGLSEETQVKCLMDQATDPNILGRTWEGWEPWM
- test: Inhibition of human DNA-PK using GST-tagged p53N66 as substrate after 1 hr by ELISA-based chemiluminiscence assay
// scale note: pIC50 = -log10(conc_M); give the bare number

Enquiry: Which value of pIC50 has been reported for CN1CCN(CCC(=O)Nc2ccc(-c3cccc4c(=O)cc(N5CCOCC5)oc34)c3sc4ccccc4c23)CC1 in the records?
Return: 7.55

Enquiry: Which value of pIC50 has been reported for CC(C)N1CCN(C(=O)COc2ccc(-c3cccc4c(=O)cc(N5CCOCC5)oc34)c3sc4ccccc4c23)CC1 in the records?
Return: 7.80

Enquiry: Which value of pIC50 has been reported for O=C(CN1CCN(CCO)CC1)Nc1ccc(-c2cccc3c(=O)cc(N4CCOCC4)oc23)c2sc3ccccc3c12 in the records?
Return: 8.30

Enquiry: Which value of pIC50 has been reported for COC(=O)[C@H](CO)NCCOc1ccc(-c2cccc3c(=O)cc(N4CCOCC4)oc23)c2sc3ccccc3c12 in the records?
Return: 8.70

Enquiry: Which value of pIC50 has been reported for O=C(CCN1CCCCC1)Nc1ccc(-c2cccc3c(=O)cc(N4CCOCC4)oc23)c2sc3ccccc3c12 in the records?
Return: 7.43

Enquiry: Which value of pIC50 has been reported for CC(C)NCC(=O)CN1CCN(CC(=O)Nc2ccc(-c3cccc4c(=O)cc(N5CCOCC5)oc34)c3sc4ccccc4c23)CC1 in the records?
Return: 8.22

Enquiry: Which value of pIC50 has been reported for CCN(CC)CCC(=O)Nc1ccc(-c2cccc3c(=O)cc(N4CCOCC4)oc23)c2sc3ccccc3c12 in the records?
Return: 7.92

Enquiry: Which value of pIC50 has been reported for COc1ccc(CNCC(=O)Nc2ccc(-c3cccc4c(=O)cc(N5CCOCC5)oc34)c3sc4ccccc4c23)cc1 in the records?
Return: 7.42

Enquiry: Which value of pIC50 has been reported for O=C(CN1CCCNCC1)Nc1ccc(-c2cccc3c(=O)cc(N4CCOCC4)oc23)c2sc3ccccc3c12 in the records?
Return: 7.66

Enquiry: Which value of pIC50 has been reported for O=C(CCN(CCO)CCO)Nc1ccc(-c2cccc3c(=O)cc(N4CCOCC4)oc23)c2sc3ccccc3c12 in the records?
Return: 7.59

Enquiry: Which value of pIC50 has been reported for O=C(CCN1CCNCC1)Nc1ccc(-c2cccc3c(=O)cc(N4CCOCC4)oc23)c2sc3ccccc3c12 in the records?
Return: 7.43

Enquiry: Which value of pIC50 has been reported for O=C(CN1CCCCC1)Nc1ccc(-c2cccc3c(=O)cc(N4CCOCC4)oc23)c2sc3ccccc3c12 in the records?
Return: 7.68

Enquiry: Which value of pIC50 has been reported for CCN1CCN(CCC(=O)Nc2ccc(-c3cccc4c(=O)cc(N5CCOCC5)oc34)c3sc4ccccc4c23)CC1 in the records?
Return: 7.48

Enquiry: Which value of pIC50 has been reported for CCN(CC(=O)Nc1ccc(-c2cccc3c(=O)cc(N4CCOCC4)oc23)c2sc3ccccc3c12)Cc1ccncc1 in the records?
Return: 8.10

Enquiry: Which value of pIC50 has been reported for COCCNCC(=O)Nc1ccc(-c2cccc3c(=O)cc(N4CCOCC4)oc23)c2sc3ccccc3c12 in the records?
Return: 8.15

Enquiry: Which value of pIC50 has been reported for CC(=O)N1CCN(C(=O)COc2ccc(-c3cccc4c(=O)cc(N5CCOCC5)oc34)c3sc4ccccc4c23)CC1 in the records?
Return: 7.80

Enquiry: Which value of pIC50 has been reported for CN1CCCC1CCNCC(=O)Nc1ccc(-c2cccc3c(=O)cc(N4CCOCC4)oc23)c2sc3ccccc3c12 (configuration not stated) in the records?
Return: 7.37

Enquiry: Which value of pIC50 has been reported for CCN(CC)CC(=O)Nc1ccc(-c2cccc3c(=O)cc(N4CCOCC4)oc23)c2sc3ccccc3c12 in the records?
Return: 7.08

Enquiry: Which value of pIC50 has been reported for O=C(CCNCCO)Nc1ccc(-c2cccc3c(=O)cc(N4CCOCC4)oc23)c2sc3ccccc3c12 in the records?
Return: 8.00

Enquiry: Which value of pIC50 has been reported for O=C(CCN1CCCN(CCO)CC1)Nc1ccc(-c2cccc3c(=O)cc(N4CCOCC4)oc23)c2sc3ccccc3c12 in the records?
Return: 7.38

Enquiry: Which value of pIC50 has been reported for C[C@@H]1CN(CC(=O)Nc2ccc(-c3cccc4c(=O)cc(N5CCOCC5)oc34)c3sc4ccccc4c23)C[C@H](C)O1 in the records?
Return: 8.40

Enquiry: Which value of pIC50 has been reported for O=C(CN1CCN(c2ccc(F)cc2)CC1)Nc1ccc(-c2cccc3c(=O)cc(N4CCOCC4)oc23)c2sc3ccccc3c12 in the records?
Return: 7.82

Enquiry: Which value of pIC50 has been reported for COc1ccc(CNCCC(=O)Nc2ccc(-c3cccc4c(=O)cc(N5CCOCC5)oc34)c3sc4ccccc4c23)cc1 in the records?
Return: 8.05

Enquiry: Which value of pIC50 has been reported for CCN1CCCC1CNCC(=O)Nc1ccc(-c2cccc3c(=O)cc(N4CCOCC4)oc23)c2sc3ccccc3c12 (configuration not stated) in the records?
Return: 7.52

Enquiry: Which value of pIC50 has been reported for CN(C)CCN1CCN(CC(=O)Nc2ccc(-c3cccc4c(=O)cc(N5CCOCC5)oc34)c3sc4ccccc4c23)CC1 in the records?
Return: 8.00

Enquiry: Which value of pIC50 has been reported for C[C@@H]1CN(CCC(=O)Nc2ccc(-c3cccc4c(=O)cc(N5CCOCC5)oc34)c3sc4ccccc4c23)C[C@H](C)O1 in the records?
Return: 8.05

Enquiry: Which value of pIC50 has been reported for CN1CCCN(CC(=O)Nc2ccc(-c3cccc4c(=O)cc(N5CCOCC5)oc34)c3sc4ccccc4c23)CC1 in the records?
Return: 7.26

Enquiry: Which value of pIC50 has been reported for CC(C)N1CCN(CCOc2ccc(-c3cccc4c(=O)cc(N5CCOCC5)oc34)c3sc4ccccc4c23)CC1 in the records?
Return: 8.52

Enquiry: Which value of pIC50 has been reported for O=C(CCN1CCN(c2ccccn2)CC1)Nc1ccc(-c2cccc3c(=O)cc(N4CCOCC4)oc23)c2sc3ccccc3c12 in the records?
Return: 7.62

Enquiry: Which value of pIC50 has been reported for O=C(CN1CCN(CCOCCO)CC1)Nc1ccc(-c2cccc3c(=O)cc(N4CCOCC4)oc23)c2sc3ccccc3c12 in the records?
Return: 8.22

Enquiry: Which value of pIC50 has been reported for O=C(CNCCO)Nc1ccc(-c2cccc3c(=O)cc(N4CCOCC4)oc23)c2sc3ccccc3c12 in the records?
Return: 8.10

Enquiry: Which value of pIC50 has been reported for O=c1cc(N2CCOCC2)oc2c(-c3ccc(OCCN4CCCCC4)c4c3sc3ccccc34)cccc12 in the records?
Return: 7.70

---

pIC50: −log10 of the molar value.
measured.metric: pIC50

Enquiry: Form entry - test system: Cytochrome P450 3A4 (Homo sapiens, UniProt P08684); read-out: pIC50; compound: CN1CCN(CC(=O)Nc2ccc(-c3cccc4c(=O)cc(N5CCOCC5)oc34)c3sc4ccccc4c23)CC1
Sequence (P08684 whole entry): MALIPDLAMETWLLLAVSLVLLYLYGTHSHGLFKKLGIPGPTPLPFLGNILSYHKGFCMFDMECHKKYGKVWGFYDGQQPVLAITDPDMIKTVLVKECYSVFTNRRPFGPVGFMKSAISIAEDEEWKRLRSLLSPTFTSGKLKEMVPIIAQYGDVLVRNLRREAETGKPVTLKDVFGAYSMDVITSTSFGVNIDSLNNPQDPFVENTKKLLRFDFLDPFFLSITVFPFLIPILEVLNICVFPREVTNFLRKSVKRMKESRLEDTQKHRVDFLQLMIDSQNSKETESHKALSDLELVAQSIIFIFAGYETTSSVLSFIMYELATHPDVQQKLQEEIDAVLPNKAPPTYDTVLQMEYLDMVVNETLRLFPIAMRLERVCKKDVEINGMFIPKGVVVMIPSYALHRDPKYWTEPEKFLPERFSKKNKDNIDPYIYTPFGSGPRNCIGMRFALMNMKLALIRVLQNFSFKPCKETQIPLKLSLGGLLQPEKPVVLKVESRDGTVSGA
Return: < 5.00

---

- tgt: DNA-dependent protein kinase catalytic subunit (Homo sapiens, UniProt P78527)
- test: Inhibition of human DNA-PK using GST-tagged p53N66 as substrate after 1 hr by ELISA-based chemiluminiscence assay
measured.metric: pIC50
// scale note: pIC50 = -log10(conc_M); give the bare number

Enquiry: Which value of pIC50 has been reported for O=C(CN1CCCN(CCO)CC1)Nc1ccc(-c2cccc3c(=O)cc(N4CCOCC4)oc23)c2sc3ccccc3c12 in the records?
Return: 7.52

Enquiry: Which value of pIC50 has been reported for CN1CCCN(CCC(=O)Nc2ccc(-c3cccc4c(=O)cc(N5CCOCC5)oc34)c3sc4ccccc4c23)CC1 in the records?
Return: 7.39

Enquiry: Which value of pIC50 has been reported for C[C@@H]1CN(CCOc2ccc(-c3cccc4c(=O)cc(N5CCOCC5)oc34)c3sc4ccccc4c23)C[C@H](C)O1 in the records?
Return: 8.00
